Ki values by entry
biological target: CDK1/cyclin B (Homo sapiens); test: Kinase assay CDK1/cyclin B (radioactive phosphate incorporation); conditions: Ki calculated (Cheng-Prusoff) from experimentally determined IC50 and Km,ATP; read-out: Kinase Inhibition Ki CDK1 - cyclin B
Sequence (P06493 whole entry, species assumed): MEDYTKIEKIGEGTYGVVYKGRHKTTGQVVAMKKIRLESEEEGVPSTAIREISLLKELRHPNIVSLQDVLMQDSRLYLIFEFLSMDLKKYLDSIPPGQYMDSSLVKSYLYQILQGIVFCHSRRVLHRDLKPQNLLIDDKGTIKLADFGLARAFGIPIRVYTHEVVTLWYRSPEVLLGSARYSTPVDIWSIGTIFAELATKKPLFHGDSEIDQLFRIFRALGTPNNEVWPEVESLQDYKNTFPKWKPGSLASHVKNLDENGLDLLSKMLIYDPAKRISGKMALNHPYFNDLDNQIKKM
Sequence (P14635 whole entry partner, species assumed): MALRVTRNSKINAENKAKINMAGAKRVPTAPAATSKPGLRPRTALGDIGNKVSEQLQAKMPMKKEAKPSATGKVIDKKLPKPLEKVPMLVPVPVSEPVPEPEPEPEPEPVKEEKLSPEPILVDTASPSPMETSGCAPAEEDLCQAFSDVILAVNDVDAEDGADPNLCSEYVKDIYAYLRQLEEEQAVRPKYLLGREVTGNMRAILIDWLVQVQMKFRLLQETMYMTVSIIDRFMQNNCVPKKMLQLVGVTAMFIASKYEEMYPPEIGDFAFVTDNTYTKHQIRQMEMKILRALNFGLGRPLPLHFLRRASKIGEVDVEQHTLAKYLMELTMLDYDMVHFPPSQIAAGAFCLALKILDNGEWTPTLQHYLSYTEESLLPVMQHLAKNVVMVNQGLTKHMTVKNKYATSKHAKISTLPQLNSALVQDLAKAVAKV
Reply numerically in nM, unit not repeated.

CCNS(=O)(=O)c1cccc(Nc2nccc(-c3sc(=O)n(C)c3C)n2)c1: 430
Cc1c(-c2ccnc(Nc3cc([N+](=O)[O-])ccc3N(C)C)n2)sc(=O)n1C: 9900
COCCNS(=O)(=O)c1ccc(Nc2nccc(-c3sc(=O)n(C)c3C)n2)cc1: 4.1

Next, consider the following compound.
Exam item: Which value of Ki has been reported for Cc1c(-c2ccnc(Nc3ccc(N4CCN(Cc5ccccc5)CC4)cc3)n2)sc(=O)n1C in the records?
Marked response: 1700
